Sourced from the Deep4Chem optical property database

- measurement.description: solvent given as SMILES
- condition: in CO
Under this convention, class 1 denotes absorption maximum strictly below 400 nm and class 0 denotes absorption maximum at or above 400 nm.

molecular_string=Nc1cccc2cccc(N)c12 label_class="class 1"
molecular_string=CCN(CC)c1ccc(-c2cc3c(s2)c(C(=O)OC)cc(=O)n3C)cc1 label_class="class 0"
molecular_string=O=C1CCCC2=C1CC1=C(CCCC1=O)N2NC(=O)c1ccc(O)cc1 label_class="class 1"
molecular_string=CCCCCCc1cc(B(c2c(C)cc(C)cc2C)c2c(C)cc(C)cc2C)c(-c2sc(CCCCCC)cc2P(=O)(c2ccccc2)c2ccccc2)s1 label_class="class 0"
molecular_string=CCCSc1ccc2n1[B-](F)(F)[N+]1=CC=CC1=C2c1ccccc1 label_class="class 0"
molecular_string=CCC1=C(C)C2=Cc3cscc3B(O)N2C1=O label_class="class 1"
molecular_string=CN(C)c1ccc(/C=C/C(=O)O)cc1 label_class="class 1"
molecular_string=O=c1cccc2n1CN1C=C(Br)C=CC1=N2 label_class="class 0"
molecular_string=CC1=N/C(=C\c2ccccc2N)C(=O)N1C label_class="class 0"

###

- measurement.description: solvent given as SMILES
- condition: in C1CCOC1
Each entry below lists one item and its recorded absorption maximum value.
observation.type: absorption maximum

compound="C1=C2c3cc4ccccc4cc3C3=[N+]2[B-]2(Oc4ccccc43)Oc3ccccc3-c3c4cc5ccccc5cc4c1n32 (centres undefined)" observation_type="absorption maximum" reported="830 nm"
compound=C(=C\c1ccc(/C=C/c2ccc(N(c3ccccc3)c3ccccc3)cc2)c2nsnc12)/c1ccc(N(c2ccccc2)c2ccccc2)cc1 observation_type="absorption maximum" reported="512 nm"
compound=O=C1C2=C(O[B-](F)(F)[n+]3c2ccc2ccccc23)c2ccc(N3CCOCC3)c3cccc1c23 observation_type="absorption maximum" reported="464 nm"
compound=Cc1ccc(NC(=O)c2sc(Br)nc2C)cc1 observation_type="absorption maximum" reported="301.5 nm"

###

- measurement.description: solvent given as SMILES
- condition: in ClCCl
observation.type: absorption maximum (nm)

compound=c1cc2ccc3cccc4ccc(c1)c2c34 observation_type="absorption maximum" reported=333
compound="CCC(C)[Si](C#Cc1c2nc3c4ccccc4c(=O)c4ccccc4c3nc2c(C#C[Si](C(C)CC)(C(C)CC)C(C)CC)c2nc3c4ccccc4c(=O)c4ccccc4c3nc12)(C(C)CC)C(C)CC (stereo not given)" observation_type="absorption maximum" reported=544
compound=COc1cc(OC)cc(C2=C3C(C)=C(I)C(C)=[N+]3[B-](F)(F)n3c(/C=C/c4ccsc4)c(I)c(C)c32)c1 observation_type="absorption maximum" reported=599
compound=N#C/C(=C/Nc1ccc(C#N)cc1)c1nc(-c2ccccc2)cs1 observation_type="absorption maximum" reported=375
compound=CC(C)(C)c1ccc2c(c1)c1cc(C(C)(C)C)ccc1n2-c1ccc(N(c2ccc(-c3ccc(-c4ccc(N(c5ccc(-n6c7ccc(C(C)(C)C)cc7c7cc(C(C)(C)C)ccc76)cc5)c5ccc(-n6c7ccc(C(C)(C)C)cc7c7cc(C(C)(C)C)ccc76)cc5)cc4)s3)cc2)c2ccc(-n3c4ccc(C(C)(C)C)cc4c4cc(C(C)(C)C)ccc43)cc2)cc1 observation_type="absorption maximum" reported=396
compound=CC[N+](CC)=c1ccc2cc3c(oc-2c1)-c1ccc(N(C)C)cc1CC3 observation_type="absorption maximum" reported=619
compound=CN(C)c1ccc2nc(/C=C/c3cc4c5c(c3)CCCN5CCC4)c(=O)oc2c1 observation_type="absorption maximum" reported=514.5
compound="CCCc1c(C(=O)c2ccc3c4c(cccc24)-c2cccc4c2C3CC=C4)c2ccc3cccc4c5cccc6ccc1c(c65)c2c34 (stereo not given)" observation_type="absorption maximum" reported=468
compound="CCOC(=O)c1ccc(C2CC(c3cccc4ccccc34)=NN2c2ccc(OC)cc2)cc1 (stereo not given)" observation_type="absorption maximum" reported=383
compound=CC(C)[Si](C#Cc1c2cc3ccccc3cc2c(C#C[Si](C(C)C)(C(C)C)C(C)C)c2nc3c4ccccc4c(=O)c4ccccc4c3nc12)(C(C)C)C(C)C observation_type="absorption maximum" reported=615
compound=CCC1=C(CC)c2cccc3c2c(cc2nc4ccccc4nc23)O1 observation_type="absorption maximum" reported=501
compound=CC1=C(c2cccs2)C(C)=[N+]2C1=C(c1ccc(O)cc1)c1c(C)c(-c3cccs3)c(C)n1[B-]2(F)F observation_type="absorption maximum" reported=528
compound=COc1cccc2cc(C)c3c4ccccc4[nH]c3c12 observation_type="absorption maximum" reported=360
compound=c1ccc2c(c1)c1ccccc1n2-c1ccc(-c2ccc(-n3c4ccccc4c4ccccc43)nc2-n2c3ccccc3c3ccccc32)nn1 observation_type="absorption maximum" reported=337
compound=N#C/C(=C(/C#N)c1ccc(-c2ccncc2)cc1)c1ccc(-c2ccncc2)cc1 observation_type="absorption maximum" reported=343

###

- measurement.description: solvent given as SMILES
- condition: in CCO
observation.type: absorption maximum (nm)

molecule=CCN(CC)c1cc2oc3cc(N(CC)CC)c(F)cc3c(=O)c2cc1F observation_type="absorption maximum" unit_label=nm reported=389
molecule=NC(=O)Cc1cccc2ccccc12 observation_type="absorption maximum" unit_label=nm reported=282
molecule=Cc1c(C)n2c(COC(=O)c3ccccc3O)c(C)c(=O)n2c1=O observation_type="absorption maximum" unit_label=nm reported=379
molecule=O=C([O-])c1ccc(C(=O)[O-])c(C2=c3cc4c5c(c3Oc3c2cc2c6c3CCCN6CCC2)CCC[N+]=5CCC4)c1 observation_type="absorption maximum" unit_label=nm reported=571
molecule=CC(C)[Si]1(C(C)C)c2cc(C=O)ccc2-c2ccc(N(C)C)cc21 observation_type="absorption maximum" unit_label=nm reported=395
molecule=CN1/C(=C/C=C(/C=C/c2sc3ccccc3[n+]2C)c2ccc(F)cc2)Sc2ccccc21 observation_type="absorption maximum" unit_label=nm reported=648
molecule=COc1ccc(-c2csc(-c3ccncc3)n2)cc1 observation_type="absorption maximum" unit_label=nm reported=340
molecule=OCc1ccc2c3cccc4cccc(c5cccc1c52)c43 observation_type="absorption maximum" unit_label=nm reported=439
molecule=CCC1(CC)c2cc(C=C(C#N)C#N)ccc2-c2ccc(N(C)C)cc21 observation_type="absorption maximum" unit_label=nm reported=478
molecule="CC/[NH+]=c1\\cc2oc3cc(NCCC(=O)NC(CCC(=O)OC)C(=O)OC)c4ccccc4c3nc-2cc1C (stereo unspecified)" observation_type="absorption maximum" unit_label=nm reported=600
molecule=CCOC(=O)c1cc(C(=O)OCC)c2cc(C)ccc2n1 observation_type="absorption maximum" unit_label=nm reported=330

###

- measurement.description: solvent given as SMILES
- condition: in CN(C)C=O
Kindly note that classification relies on absorption maximum with these boundaries: lower: < 400 nm; middle: ≥ 400 nm and < 500 nm; upper: ≥ 500 nm

compound="CCOC(=O)C(Cc1ccc(O[Si]2(Oc3ccc(CC(NC(C)=O)C(=O)OCC)cc3)n3c4c5ccccc5c3/N=C3N=C(/N=c5/c6ccccc6/c(n52)=N/C2=NC(=N\\4)/c4ccccc42)c2ccccc2\\3)cc1)NC(C)=O (centres undefined)" label_class=upper
compound=CN(C)c1ccc(/C=C/c2cc[n+](CCCCC[n+]3ccc(/C=C/c4ccc(N(C)C)cc4)cc3)cc2)cc1 label_class=middle
compound=NCCCCCCCCCCCCN1C(=O)c2ccc3c4ccc5c6c(ccc(c7ccc(c2c37)C1=O)c64)C(=O)N(CCCCCCCCCCCCN)C5=O label_class=upper
compound=COc1ccc(-c2csc(-c3ccncc3)n2)cc1 label_class=lower
compound=CN(C)c1ccc(/C=C2/N=C(c3ccccc3)OC2=O)cc1 label_class=middle
compound=CCCCCCCCC1(CCCCCCCC)c2cc(-c3ccc(C(F)(F)F)cc3)ccc2-c2ccc(N(c3ccc(-n4c5ccccc5c5ccccc54)cc3)c3ccc4c(c3)C(CCCCCCCC)(CCCCCCCC)c3cc(-c5ccc(C(F)(F)F)cc5)ccc3-4)cc21 label_class=lower

###

- measurement.description: solvent given as SMILES
- condition: in CO
observation.type: absorption maximum (nm)

molecular_string=CC(C)CCC[C@@H](C)[C@H]1CC[C@H]2[C@@H]3CC=C4C[C@@H](OC(=O)Oc5cc(/C=C/C=C/c6ccc(N(C)C)cc6)ccc5[N+](=O)[O-])CC[C@]4(C)[C@H]3CC[C@]12C observation_type="absorption maximum" unit_label=nm reported=448
molecular_string=C/C(=C\c1ccc(Cl)cc1)c1nc2ccccc2s1 observation_type="absorption maximum" unit_label=nm reported=320
molecular_string=CCCN1C(=O)C(=CC=CC=C2Oc3ccccc3N2CCCS(=O)(=O)[O-])C(=O)N(CCC)C1=S observation_type="absorption maximum" unit_label=nm reported=554

###

- measurement.description: solvent given as SMILES
- condition: in CS(C)=O
Below: a set of entries, each annotated with reported absorption maximum.
observation.type: absorption maximum (nm)

molecular_string=CCN1c2ccc(/C=N/Nc3ccccn3)cc2Sc2cc(-c3ccccc3)ccc21 reported=387
molecular_string=FC(F)(F)c1ccc(/C=C/c2ccc(-c3nnc(-c4ccc(-c5cc6ccccc6s5)cc4)o3)cc2)cc1 reported=342
molecular_string=C(=C\c1cccc2ccccc12)/c1ccc(-c2nnc(-c3ccc(-c4cc5ccccc5s4)cc3)o2)cc1 reported=360
molecular_string=CCCCC[n+]1ccc(/C=C/c2ccc(N(C)C)c3ccccc23)c2ccccc21 reported=506
molecular_string=COc1ccc(-c2csc(-c3ccncc3)n2)cc1 reported=341
molecular_string=CCN(CC)c1ccc2cc(/C=C/C3=CC(/C=C/c4cc5ccc(N(CC)CC)cc5oc4=O)=[O+][B-](F)(F)O3)c(=O)oc2c1 reported=652
molecular_string=COc1ccc(C#Cc2ccc(C#N)cc2)cc1 reported=329
molecular_string=c1ccc(-c2nc3sc4ccccc4c3s2)cc1 reported=348
molecular_string=CCN(CC)c1ccc(OC)c(C=O)c1 reported=424
molecular_string=CN(C)c1ccc2nc(/C=C/c3cc4c5c(c3)CCCN5CCC4)c(=O)oc2c1 reported=522.5
molecular_string=C(=C\c1ccncn1)/c1ccc(N(c2ccccc2)c2ccccc2)cc1 reported=401
molecular_string=Cc1cc(O)c(C(C)C)cc1/N=C/c1ccc([N+](=O)[O-])cc1 reported=410
molecular_string=CC(C)(C)c1ccc(C(C)(C)C)c(N2C(=O)c3cccc4c(-c5ccc(-c6ccc(N(c7ccccc7)c7ccccc7)cc6)s5)ccc(c34)C2=O)c1 reported=445
molecular_string=CCN(CC)c1ccc2cc(/C(Cl)=C/C=C/C(=C(C#N)C#N)c3ccc4c(c3)c3ccccc3n4CC)c(=O)oc2c1 reported=538
molecular_string=CCCN1/C(=C/C=C(/C=C/C2=[N+](CCC)c3ccccc3C2(C)C)c2ccc3ccccc3n2)C(C)(C)c2ccccc21 reported=641
molecular_string=CN(C)c1ccc(/C=C/C=N/N=C/c2ccc3ccc4cccc5ccc2c3c45)cc1 reported=438
molecular_string=CCOC(=O)CN1C(=O)C2=C(c3ccc(N4CCCCC4)cc3)N(CC(=O)OCC)C(=O)C2=C1c1ccccc1 reported=516
molecular_string=CCCCCCCCC1(CCCCCCCC)c2cc(-c3ccc(C(F)(F)F)cc3)ccc2-c2ccc(N(c3ccc(-n4c5ccccc5c5ccccc54)cc3)c3ccc4c(c3)C(CCCCCCCC)(CCCCCCCC)c3cc(-c5ccc(C(F)(F)F)cc5)ccc3-4)cc21 reported=371
molecular_string=Cc1ccc(Nc2ccc(Nc3ccc(C)cc3)c3c2C(=O)c2ccccc2C3=O)cc1 reported=644
molecular_string=CC(=O)c1ccc(/N=N/c2ccc(Nc3ccccc3)cc2)cc1 reported=459
molecular_string=COC1=C/C(=C\C=C2C=CN(Cc3ccc(Br)cc3)C=C2)C=CC1=O reported=619
molecular_string=CCCCN1/C(=C/C=C/C2=[N+](C)c3ccccc3C2(C)C)C(C)(C)c2cc(OC)ccc21 reported=566
molecular_string=CN1/C(=C/C=C(/C=C/c2sc3ccccc3[n+]2C)c2ccc(F)cc2)Sc2ccccc21 reported=656
molecular_string=CN(C)c1ccc(/C=C/c2cc[n+](CCCOCC(COCCC[n+]3ccc(/C=C/c4ccc(N(C)C)cc4)cc3)(COCCC[n+]3ccc(/C=C/c4ccc(N(C)C)cc4)cc3)COCCC[n+]3ccc(/C=C/c4ccc(N(C)C)cc4)cc3)cc2)cc1 reported=479
molecular_string=CN(C)c1ccc(-c2ccc(-c3cc(N4CCCCC4)c(C#N)c4c3-c3ccccc3CC4)s2)cc1 reported=379
molecular_string=COc1cccc(-c2nc3sc4ccccc4c3s2)c1 reported=350
molecular_string=CCC1=C(C)c2cc3c(OC)cc(OC)cc3c(=O)n2C1=O reported=434
molecular_string=Cc1ccc(NC(=O)c2sc(Br)nc2C)cc1 reported=283.5
molecular_string=CN(C)c1ccc(/C=C/C=C2\CCCC2=O)cc1 reported=416
molecular_string=CCCCN1/C(=C/C=C/C2=[N+](C)c3ccccc3C2(C)C)Oc2ccccc21 reported=516
molecular_string=CCN(CC)c1ccc2cc(-c3cc(SC)c(C#N)c(=O)o3)c(=O)oc2c1 reported=527
